substances and their reported AST
- PROTOCOL_SUMMARY: Plasma chemistry markers after subcutaneous administration in CD-1 mice (Example 6)
- Assay type: in vivo
- STATED_CONDITIONS: CD-1 mice plasma at day 46; 50 mg/kg subcutaneously twice a week for 7 weeks
Strand notation (5' to 3'): a small letter for the sugar, then the base; units joined by * are phosphorothioate-linked, units joined directly phosphodiester-linked; [ ] holds rarer units or linkages, { } end groups; capitals alone tell only the bases. k = constrained ethyl (cEt); [5mC] = 5-methylcytosine; d = 2'-deoxy (DNA)
Write the number in IU/L without appending the unit.

The following substances have reported results that may help.
substance="830121 (AGAATCAAGCCCTGGC; 3-10-3 cEt gapmer, further chemistry not given here) [compound 830121]" reported_property=AST value_unit=IU/L experimental_value=151
substance="830025 (antisense TTTGTAAATCGAAAGC; 3-10-3 cEt gapmer, further chemistry not given here) [compound 830025]" reported_property=AST value_unit=IU/L experimental_value=263

Please give the measured AST for this substance: 829994 (GGAGGCAGGGCCGCGA; 3-10-3 cEt gapmer, further chemistry not given here) [compound 829994] 90

Would you kindly share the measured AST for 790615 (CCAATGAGAATGCTTC; 3-10-3 cEt gapmer, further chemistry not given here) [compound 790615] ? 97

Fill in: AST of 799144 (antisense kT*kT*kG*dG*dG*dT*dT*dA*dT*dG*dA*d[5mC]*dG*kG*kA*k[5mC]) [compound 799144] is ___ 170

Recorded AST of 830027 (antisense kA*kA*k[5mC]*d[5mC]*dA*dT*dT*dT*dA*dT*d[5mC]*dT*dG*kG*kT*kG) [compound 830027] , please. 104

###

In this section we review reported % Inhibition values for a set of substances.
- Tested on: human SMAD7 mRNA
- PROTOCOL_SUMMARY: Antisense inhibition of human SMAD7 mRNA expression in Hep3B cells by 3-10-3 cEt gapmers, 10,000 nM, electroporation (Example 2)
- Type: cell-based
- STATED_CONDITIONS: Hep3B cells, electroporation with 10,000 nM antisense oligonucleotide, approximately 24 hours, SMAD7 mRNA by RT-PCR (RTS5062), relative to untreated control cells
Strand notation (5' to 3'): a small letter for the sugar, then the base; units joined by * are phosphorothioate-linked, units joined directly phosphodiester-linked; [ ] holds rarer units or linkages, { } end groups; capitals alone tell only the bases. k = constrained ethyl (cEt); [5mC] = 5-methylcytosine; d = 2'-deoxy (DNA)
Express your answer in %, writing the number without its unit.

Sample records with % Inhibition:
substance="830086 (kT*kT*kT*dA*d[5mC]*dA*dG*dG*dA*dT*dA*d[5mC]*dA*k[5mC]*kT*kT; antisense) [compound 830086]" reported_property="% Inhibition" value_unit=% experimental_value=40
substance="798848 (kG*kA*kT*dT*dT*dT*dG*d[5mC]*dT*d[5mC]*d[5mC]*dG*d[5mC]*kA*k[5mC]*k[5mC]; antisense) [compound 798848]" reported_property="% Inhibition" value_unit=% experimental_value=40

Field: next substance
I'd like to know its % Inhibition. The substance in question is 799883 (kT*k[5mC]*kT*dA*dG*dA*dG*dG*dG*dT*dA*dG*dG*kA*kA*kA; antisense) [compound 799883] 9

###

- PROTOCOL_SUMMARY: Oligonucleotide concentration in tissues by LC-MS/MS after subcutaneous administration in beagle dogs (Example 8)
- Type: in vivo
- STATED_CONDITIONS: 30 mg/kg subcutaneous, 48 hours after the last dose, duodenum
Full length oligonucleotide, Duodenum for assorted substances

Solved cases (4 shown):
substance="830025 (antisense TTTGTAAATCGAAAGC; 3-10-3 cEt gapmer, further chemistry not given here) [compound 830025]" experimental_value="97 µg/g"
substance="830037 (antisense CTATTGGCTGATCTGG; 3-10-3 cEt gapmer, further chemistry not given here) [compound 830037]" experimental_value="55 µg/g"
substance="798781 (CGTAAGATTCACAGCA; 3-10-3 cEt gapmer, further chemistry not given here) [compound 798781]" experimental_value="97 µg/g"
substance="790615 (CCAATGAGAATGCTTC; 3-10-3 cEt gapmer, further chemistry not given here) [compound 790615]" experimental_value="17 µg/g"

Which Full length oligonucleotide, Duodenum reading was recorded for the substance 830121 (AGAATCAAGCCCTGGC; 3-10-3 cEt gapmer, further chemistry not given here) [compound 830121] ? 26 µg/g

###

- System: human SMAD7 mRNA
- PROTOCOL_SUMMARY: Antisense inhibition of human SMAD7 mRNA expression in Hep3B cells by 3-10-3 cEt gapmers, 10,000 nM, electroporation (Example 2)
- Assay type: cell-based
- STATED_CONDITIONS: Hep3B cells, electroporation with 10,000 nM antisense oligonucleotide, approximately 24 hours, SMAD7 mRNA by RT-PCR (RTS5062), relative to untreated control cells
Strand notation (5' to 3'): a small letter for the sugar, then the base; units joined by * are phosphorothioate-linked, units joined directly phosphodiester-linked; [ ] holds rarer units or linkages, { } end groups; capitals alone tell only the bases. k = constrained ethyl (cEt); [5mC] = 5-methylcytosine; d = 2'-deoxy (DNA)
Answer 0.0 if % Inhibition is under 10%, and 1.0 if it is 10% or more.

As a guide, the following entries are already answered.
substance="799929 (antisense kT*kG*k[5mC]*d[5mC]*d[5mC]*dA*dG*dG*d[5mC]*dT*dT*dG*dG*kT*kT*k[5mC]) [compound 799929]" answer_label=0.0
substance="798851 (kA*k[5mC]*k[5mC]*dA*dT*d[5mC]*d[5mC]*dA*d[5mC]*d[5mC]*dT*d[5mC]*d[5mC]*k[5mC]*kG*k[5mC]; antisense) [compound 798851]" answer_label=1.0
substance="800081 (antisense k[5mC]*kG*kG*dT*dA*dT*dT*dA*dA*d[5mC]*d[5mC]*d[5mC]*dG*kG*kG*k[5mC]) [compound 800081]" answer_label=0.0

Does the reported % Inhibition for 798846 (k[5mC]*kT*k[5mC]*d[5mC]*dG*d[5mC]*dA*d[5mC]*d[5mC]*dT*dT*d[5mC]*dT*kG*k[5mC]*kA; antisense) [compound 798846] fall at or above the 10% mark? 1.0

Hi, just wondering whether 798881 (k[5mC]*k[5mC]*kG*dT*d[5mC]*d[5mC]*dA*d[5mC]*dG*dG*d[5mC]*dT*dG*k[5mC]*kT*kG; antisense) [compound 798881] shows % Inhibition of 10% or higher. 1.0

Does the substance 830056 (kG*kT*kT*dT*dT*dG*dG*dG*dT*dG*dA*dG*dT*kA*kA*k[5mC]; antisense) [compound 830056] have recorded % Inhibition that is 10% or more? 1.0

Textbook exercise: given the entry 830112 (kG*k[5mC]*k[5mC]*d[5mC]*d[5mC]*dA*dT*dT*d[5mC]*dA*dT*dT*dA*kA*kG*k[5mC]; antisense) [compound 830112] , state whether its % Inhibition is greater than or equal to 10%. 1.0

Does 830205 (kG*kA*k[5mC]*dT*d[5mC]*dA*dT*d[5mC]*dA*dG*dG*d[5mC]*dA*kT*kT*k[5mC]; antisense) [compound 830205] have a reported % Inhibition of at least 10%? 1.0

Identify whether the reported % Inhibition of the following substance is 10% or greater: 798818 (kT*kA*kT*dG*d[5mC]*d[5mC]*dA*d[5mC]*d[5mC]*dA*d[5mC]*dG*d[5mC]*kA*k[5mC]*k[5mC]; antisense) [compound 798818] 1.0

State whether the measured % Inhibition reaches 10%, counting equality as reaching it, for 800103 (antisense kG*kG*kA*d[5mC]*dG*dA*dG*dA*d[5mC]*dA*dG*dA*dA*kA*kG*kA) [compound 800103] 0.0

Say whether 830126 (antisense k[5mC]*kT*k[5mC]*d[5mC]*dG*dA*dG*dG*d[5mC]*dA*d[5mC]*d[5mC]*dA*k[5mC]*kA*kT) [compound 830126] shows % Inhibition of 10% or more. 1.0

Is it the case that 830138 (antisense kG*kG*kA*dG*dT*dT*dG*d[5mC]*dA*dT*dG*d[5mC]*d[5mC]*kT*kT*kT) [compound 830138] has % Inhibition reaching or exceeding 10%? 1.0

Could you tell me if the measured % Inhibition of 830147 (antisense kG*kA*k[5mC]*dT*dG*dG*dT*d[5mC]*dT*dT*d[5mC]*dA*d[5mC]*k[5mC]*kA*kG) [compound 830147] reaches 10% or more? 0.0

###

- Test system: human SMAD7 mRNA
- PROTOCOL_SUMMARY: Antisense inhibition of human SMAD7 mRNA expression in Hep3B cells by 3-10-3 cEt gapmers, 10,000 nM, electroporation (Example 2)
- Format: cell-based
- STATED_CONDITIONS: Hep3B cells, electroporation with 10,000 nM antisense oligonucleotide, approximately 24 hours, primer probe set RTS5062, relative to untreated control cells
Strand notation (5' to 3'): a small letter for the sugar, then the base; units joined by * are phosphorothioate-linked, units joined directly phosphodiester-linked; [ ] holds rarer units or linkages, { } end groups; capitals alone tell only the bases. k = constrained ethyl (cEt); [5mC] = 5-methylcytosine; d = 2'-deoxy (DNA)
The following substances are listed with their measured % inhibition of SMAD7 mRNA expression values.
All answers are understood in %, so give the number only.

substance="799088 (antisense kG*k[5mC]*kT*dG*d[5mC]*d[5mC]*d[5mC]*d[5mC]*dG*dG*d[5mC]*dA*dG*k[5mC]*k[5mC]*k[5mC]) [compound 799088]" value_unit=% experimental_value=24
substance="799476 (antisense kG*k[5mC]*kT*d[5mC]*dA*dA*dA*dG*dG*dG*d[5mC]*d[5mC]*dA*k[5mC]*k[5mC]*k[5mC]) [compound 799476]" value_unit=% experimental_value=0
substance="799459 (antisense kA*k[5mC]*kA*dG*dA*dG*dT*d[5mC]*dT*dT*dT*dG*dA*kA*kA*kA) [compound 799459]" value_unit=% experimental_value=0

Field: next substance
Record request: % inhibition of SMAD7 mRNA expression value, item 799190 (antisense kA*kG*kA*dA*dT*dG*d[5mC]*dT*dT*d[5mC]*dT*d[5mC]*dT*kT*kG*kT) [compound 799190] 61

Where these numbers come from: patent US10517889B2
